assay: Lactone hydrolysis to the dihydroxy acid; details: HEPES/EDTA buffer, pH 7.8
Task for the reader: assign each of the following compounds its reported half-life at 200 mM.
Could you give me the number in min? Just the number is fine.

Prompt: Please look at this compound and report its half-life at 200 mM: CC[C@H]1C(=O)N[C@@]2([C@@H](O)C(C)C)C(=O)O[C@@H]12 [Compound 3a]
Response: 15.3

Prompt: Please look at this compound and report its half-life at 200 mM: CO[C@H]1C(=O)N[C@@]2([C@@H](O)C(C)C)C(=O)O[C@@H]12 [Compound 3f]
Response: 3.7

Prompt: Please look at this compound and report its half-life at 200 mM: CCC[C@H]1C(=O)N[C@@]2([C@@H](O)C(C)C)C(=O)O[C@@H]12 [Compound 3b, 7-n-propyl-clasto-lactacystin β-lactone]
Response: 15.3

Prompt: Please look at this compound and report its half-life at 200 mM: CC(C)C[C@H]1C(=O)N[C@@]2([C@@H](O)C(C)C)C(=O)O[C@@H]12 [Compound 3d]
Response: 16.8

Prompt: Please look at this compound and report its half-life at 200 mM: CCCC[C@H]1C(=O)N[C@@]2([C@@H](O)C(C)C)C(=O)O[C@@H]12 [Compound 3c]
Response: 17
